The reported numbers originate from PubChem BioAssay (NCI).

- System: NCI-H322M lung
- protocol-text: NCI-60 one-dose screen, 48 h (100 = growth as untreated, 0 = no growth, -100 = all killed)
- condition-set: 10 µM unless noted
About 83,000 compounds went through this panel and 20% of them were active in at least one assay; those are over-represented in the sample as a whole.
observable: growth (%)

> print(dat)
                                        mol  unit.name  value
1  COc1cc2oc(-c3cccc(C(=O)Nc4cccc([N+](=O)[O-])c4)c3)cc(=O)c2c(OC)c1OC          %   40.2
2  NS(=O)(=O)c1ccc(-n2cc(-c3cccc(NC(=O)c4cc(N5CCOCC5)cc(C(F)(F)F)c4)c3)nn2)cc1          %   71.4
3    N#Cc1ccc(C(=O)Nn2c(N)cc3ccccc3c2=O)cc1          %   94.7

###

- Test system: MALME-3M melanoma
- protocol-text: NCI-60 one-dose screen, 48 h
- condition-set: 10 µM unless noted
The panel holds about 83,000 compounds, 20% with a hit somewhere; the sample as a whole holds those more often. Activity calls are given as the source filed them. How the source made its calls: active means growth percent below 10; inactive means the rest.
Outcomes: t for active, f for inactive

> print(dat)
                                    molecule  class.name
 1  CC(=O)c1cc(C(=O)c2ccccc2)n2c1ccc1ccccc12           f
 2  CCOC(=O)/C=C/c1cccc2c1C(=O)NC(C)(c1cc3cc(Cl)ccc3oc1=O)N2 (configuration not stated)           f
 3  O=C(Cn1c(/C=C/c2cccc([N+](=O)[O-])c2)nc2ccccc2c1=O)Nc1ccccc1           f
 4   Cc1cc2nc3c4ccccc4n(CCNCCN(C)C)c3nc2cc1C           t
 5  CC(=O)Oc1ccc(/C=C/C(=O)N[C@@H](Cc2ccccc2)C(O)C(=O)NCc2ccccc2)cc1OC(C)=O (some centres not stated)           f
 6  O=C(C1=CNC(=S)NC1c1ccc(O)cc1)c1cc2ccccc2oc1=O (configuration not stated)           f
 7  CC1CCCCN1CCCNC(=O)N/C(N)=N/c1nc2ccccc2s1 (configuration not stated)           t
 8  Cc1ccccc1[C@H]1C(C(=O)c2ccc(Cl)cc2)C2(N[C@@H]1c1ccccc1)C(=O)Nc1ccccc12 (some centres not stated)           t
 9  C=C1CC[C@@H]2[C@]3(C)COC(c4cn[nH]c4-c4ccc(C)cc4)O[C@@H]3CC[C@@]2(C)[C@@H]1C/C=C1/C(=O)OCC1O (some centres not stated)           t
10  COc1cc2c(c(OC)c1OC)C(=O)CC(c1cccc(NC(=O)c3cc(NC(=O)[C@@H](N)CO)ccc3C)c1)O2 (some centres not stated)           f
11  O=C1c2c(c3c4cc(F)ccc4oc3c3[nH]c4ccc(Br)cc4c23)C(=O)N1O           t
12  C=Cn1cc(C(=O)O)c(=O)c2cc(F)c(N3CCN(c4nccc(-c5nccs5)n4)CC3)cc21           t
13  COc1cc2c(c(OC)c1OC)C(=O)CC(c1cccc(NC(=O)[C@@H](N)CC(C)C)c1)O2 (some centres not stated)           f
14  CCCCCCCCc1ccc(S(=O)(=O)Nc2ccc(CC)cc2C(=O)O)cc1           f
15  COc1ccc(-c2nc3cc(C)ccc3n2CC(=O)N=Nc2c(O)[nH]c3ccc(Br)cc23)cc1           t
16  CCN1C(=O)/C(=N\N=C(/C)c2ccc3c(c2)Nc2ccccc2S3)c2cc(Cl)ccc21           f
17  COc1ccc2nc(Nc3cccc(NC(=O)c4ccc(CN5CCCN(C)CC5)c(C(F)(F)F)c4)c3)ccc2c1           t
18  Cn1cc(-c2cc3nc(-c4c[nH]c5ccc(Cl)cc45)cc(N)n3n2)c2ccccc21           t
19  COCOc1cc2oc(C(=O)N[C@@H](Cc3ccccc3)C(O)C(=O)NCc3ccccc3)c(C)c(=O)c2cc1OCOC (some centres not stated)           f
20  N#Cc1c(-c2cccc(Cl)c2Cl)cc(-c2ccc3ccccc3c2)[nH]c1=O           f
21  C=C1CCC2C3(C)COC(c4ccccc4)OC3CCC2(C)C1CC(Sc1ccccc1)C1=CCOC1=O (configuration not stated)           f
22  O=C(CN1C(=O)/C(=C/c2ccccc2Cl)SC1=S)N1CCOCC1           f
23  Cn1cc(-c2cc3nc(-c4cn(C)c5ncc(Br)cc45)cc(N)n3n2)c2cc(Cl)ccc21           t
24  COc1ccc(NC(=O)Cn2c(/C=C/c3cccc([N+](=O)[O-])c3)nc3ccccc3c2=O)cc1           f
25  CN(C)CCCNC(=O)c1cc(NC(=O)c2cc(NC(=O)c3ccc(C#Cc4ccccc4)cc3)cn2C)cn1C           t
26  COc1ccc(C(=O)/C=C/c2cc3c(cc2Br)OCO3)cc1S(N)(=O)=O           f
27  C#CCOc1cc(N(CC)CC)ccc1C(C(=O)NC(C)(C)C)N(C(=O)C1CCc2cc(F)ccc2O1)c1ccc(Br)cc1 (configuration not stated)           f
28  Cc1ccccc1[C@H]1C(C(=O)c2ccc(Cl)cc2)C2(N[C@@H]1c1ccccc1)C(=O)Nc1ccc(Cl)cc12 (some centres not stated)           t
29  O=C1Nc2cc(Cl)ccc2/C1=C/c1cccc(OCc2ccccn2)c1           f
30  O=c1[nH]c2ccccc2cc1CSc1cccc(Nc2nccc(-c3ccc4ccccc4c3)n2)c1           f
31  CCCCSc1nc(NCCc2c[nH]c3ccccc23)c(C#N)c(-c2ccc(F)cc2)n1           f
32  C=CC[N+](C)(C)CCn1c2ccccc2c2nc3cc(C)c(C)cc3nc21           f

###

- System: NCI/ADR-RES ovarian
- protocol-text: NCI-60 one-dose screen, 48 h (100 = growth as untreated, 0 = no growth, -100 = all killed)
- condition-set: 10 µM unless noted
This is part of a sample that, as a whole, favours compounds with a hit. Of some 83,000 tested, about 20% had one in any assay.
observable: growth (%)

compound	observable	unit-name	value
C[C@H]1CN(C(=O)c2ccc3c(NNC(=O)c4ccncn4)nc4cc(F)c(F)cc4n23)CCN1	growth	%	3.96
Nc1n[nH]c2cccc(C#Cc3cccc(NC(=O)c4cccc(Cl)c4)c3)c12	growth	%	25.6
COc1ccc2oc(=O)c(C3(C)NC(=O)c4c(/C=C/C(=O)OC(C)(C)C)cccc4N3)cc2c1 (configuration not stated)	growth	%	36.6
COc1cc(-c2cc(-c3cccc(OCC(=O)O)c3)[nH]c(=O)c2C#N)cc(OC)c1OC	growth	%	104
Cc1sc(C(NC(=O)OCCn2c([N+](=O)[O-])cnc2C)C(F)(F)Cl)nc1-c1ccc(OC(F)(F)F)cc1 (configuration not stated)	growth	%	-78.6
O=C(NN1C(=O)/C(=C/C=C/c2ccc([N+](=O)[O-])o2)SC1=S)c1cccc(O)c1	growth	%	-32.1
COc1cc2c(c(OC)c1OC)C(=O)CC(c1cccc(NC(=O)c3cc(N)ccc3Cl)c1)O2 (configuration not stated)	growth	%	20.5
O=C1NC(=O)c2c1c1c3cc(Br)ccc3[nH]c1c1oc3ccc(F)cc3c21	growth	%	10
NC(=S)Nc1cccc(NC(N)=S)c1	growth	%	97.6
O=C(Nc1ccc(C(F)(F)F)cc1)Nc1ccc2oc(=O)ccc2c1	growth	%	12.4
CN(C)c1ccnc(CNCCSC2(c3ccc(C(F)(F)F)cc3)c3ccccc3CCc3ccccc32)c1	growth	%	-73.9
O=C(Cn1c(/C=C/c2ccccc2)nc2ccccc2c1=O)Nc1ccc(Cl)cc1	growth	%	66.6
COc1cccc(/C=C/c2nc3ccccc3c(=O)n2CC(=O)Nc2ccc(Cl)cc2)c1	growth	%	69.3
Cc1ccc([C@H]2C(C(=O)c3ccc(Cl)cc3)C3(N[C@@H]2c2ccccc2)C(=O)Nc2ccc(Cl)cc23)cc1 (some centres not stated)	growth	%	54.6
CC1(C)CC[C@]2(C(=O)Nc3ccc(Br)cc3)CC[C@]3(C)C(=CCC4[C@@]5(C)C[C@@H](O)[C@H](O)[C@@](C)(CO)C5CC[C@]43C)C2C1 (some centres not stated)	growth	%	14.7
COc1ccc(-c2ccnc(SCc3cc4cc(OC)ccc4[nH]c3=O)n2)cc1	growth	%	-11.4
COc1ccc(C(=O)/C=C/c2cc3c(cc2Br)OCO3)cc1S(N)(=O)=O	growth	%	13.8
CC(/C=C1\SC(=S)N(CCCC(=O)NC(CC(C)C)C(=O)O)C1=O)=C\c1ccccc1 (configuration not stated)	growth	%	94.1
O=C(c1ccc(OCCN2CCOCC2)cc1)C1[C@H](c2ccc(Cl)cc2)[C@@H](c2ccccc2)NC12C(=O)Nc1ccc(Cl)cc12 (some centres not stated)	growth	%	24.5
CN(C)CCn1c2ccccc2c2nc3cc(C(F)(F)F)ccc3nc21	growth	%	30.2
COc1cc2nc(SCc3ccccc3)n(-c3ccc(Cl)cc3)c(=O)c2cc1OC	growth	%	-30.4
O=C(N/N=C/c1ccc(-c2ccc(O)cc2)o1)c1[nH]c2ccc(Br)cc2c1-c1ccccc1	growth	%	-12.1
COc1ccc(C(=O)/C=C/c2cccc3ccccc23)cc1S(N)(=O)=O	growth	%	15.1
C#CCOc1cc(N(CC)CC)ccc1C(C(=O)NC(C)(C)C)N(C(=O)C1CCc2cc(F)ccc2O1)c1ccc(F)c(Cl)c1 (configuration not stated)	growth	%	72.9
O=C1Nc2cc(Cl)ccc2/C1=C/c1cccc(OCc2ccccn2)c1	growth	%	-16.7
COc1ccc2[nH]c(O)c(N=NC(=O)COc3ccc(NC(=O)Nc4ccccc4)cc3)c2c1	growth	%	110
O=C1N/C(=N\c2nccs2)S/C1=C\C=C/c1ccccc1	growth	%	37.4
C=C1CCC2C3(C)COC(c4ccc(F)cc4)OC3CCC2(C)C1CC(O)C1=CCOC1=O (configuration not stated)	growth	%	0.657
Cc1ccc(C2CC(c3ccc(S(=O)(=O)NCCNc4nc(Nc5ccc(F)cc5)nc(N(C)C)n4)cc3)=Nc3c(N)nc(N)nc3N2)cc1 (configuration not stated)	growth	%	88.9
O=c1[nH]n(C(=S)N/N=C/c2ccccc2Cl)c(=O)c2ccccc12	growth	%	-9.23
C=C1CC[C@@H]2[C@]3(C)COC(c4cn[nH]c4-c4ccc(OC)cc4)O[C@@H]3CC[C@@]2(C)[C@@H]1C/C=C1/C(=O)OCC1O (some centres not stated)	growth	%	16.7
COc1ccc(-c2c(Nn3cnnn3)no[n+]2[O-])cc1	growth	%	54.9
